target: human αVβ6 (Homo sapiens, UniProt P06756+P18564); construct: purchased R & D systems 3817-AV; assay: human αVβ6 HTRF binding assay
Sequence (P06756 31-992 limits assumed): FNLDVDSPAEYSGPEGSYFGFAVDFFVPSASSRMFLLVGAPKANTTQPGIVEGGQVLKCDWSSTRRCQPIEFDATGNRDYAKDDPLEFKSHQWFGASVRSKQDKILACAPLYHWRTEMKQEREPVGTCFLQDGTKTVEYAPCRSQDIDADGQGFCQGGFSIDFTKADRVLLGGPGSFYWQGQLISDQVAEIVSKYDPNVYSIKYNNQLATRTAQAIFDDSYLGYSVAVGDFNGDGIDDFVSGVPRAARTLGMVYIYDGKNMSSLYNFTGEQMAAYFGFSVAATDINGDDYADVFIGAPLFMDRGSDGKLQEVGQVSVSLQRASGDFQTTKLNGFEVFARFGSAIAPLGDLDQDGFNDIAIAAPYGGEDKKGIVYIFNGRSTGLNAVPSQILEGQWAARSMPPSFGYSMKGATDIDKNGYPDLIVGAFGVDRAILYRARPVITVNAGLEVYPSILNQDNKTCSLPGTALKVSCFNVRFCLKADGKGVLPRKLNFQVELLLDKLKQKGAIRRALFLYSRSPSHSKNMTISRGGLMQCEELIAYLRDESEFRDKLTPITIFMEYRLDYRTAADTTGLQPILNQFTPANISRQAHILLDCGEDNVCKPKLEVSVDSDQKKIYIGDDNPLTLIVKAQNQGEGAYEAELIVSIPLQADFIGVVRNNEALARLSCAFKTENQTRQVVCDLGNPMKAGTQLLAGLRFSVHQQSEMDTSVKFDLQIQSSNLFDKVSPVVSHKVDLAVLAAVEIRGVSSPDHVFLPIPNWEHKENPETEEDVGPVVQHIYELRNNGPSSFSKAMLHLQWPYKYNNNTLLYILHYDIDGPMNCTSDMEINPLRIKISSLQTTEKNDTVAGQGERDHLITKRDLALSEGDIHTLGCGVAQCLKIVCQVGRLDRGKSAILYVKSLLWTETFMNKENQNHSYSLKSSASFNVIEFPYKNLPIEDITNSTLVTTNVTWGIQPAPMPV
Sequence (P18564 22-707 limits assumed): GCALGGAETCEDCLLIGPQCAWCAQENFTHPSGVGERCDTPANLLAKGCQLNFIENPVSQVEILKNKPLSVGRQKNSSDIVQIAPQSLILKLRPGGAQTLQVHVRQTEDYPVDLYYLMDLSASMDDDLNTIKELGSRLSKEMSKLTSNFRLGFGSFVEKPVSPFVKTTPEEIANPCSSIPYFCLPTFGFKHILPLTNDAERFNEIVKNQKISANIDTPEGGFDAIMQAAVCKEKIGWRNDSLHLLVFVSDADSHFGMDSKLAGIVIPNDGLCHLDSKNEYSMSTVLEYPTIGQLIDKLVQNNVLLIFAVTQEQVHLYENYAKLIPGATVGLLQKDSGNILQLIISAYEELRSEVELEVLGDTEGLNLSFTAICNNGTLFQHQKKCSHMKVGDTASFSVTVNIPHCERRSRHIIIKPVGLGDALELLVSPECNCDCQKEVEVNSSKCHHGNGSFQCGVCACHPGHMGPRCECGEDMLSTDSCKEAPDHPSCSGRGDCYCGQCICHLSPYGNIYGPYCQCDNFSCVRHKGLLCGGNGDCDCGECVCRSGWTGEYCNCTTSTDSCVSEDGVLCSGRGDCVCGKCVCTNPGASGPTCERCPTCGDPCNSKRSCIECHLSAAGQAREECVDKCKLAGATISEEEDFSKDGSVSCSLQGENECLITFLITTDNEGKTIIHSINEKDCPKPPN
pIC50: −log10 of the molar value.
Recorded metric: pIC50

Consider the reported pIC50 for these molecules:
CCCCS(=O)(=O)N[C@@H](CNC(=O)c1cnn(CCc2ccc3c(n2)NCCC3)c1)C(=O)O [Example 124] = 8.59
CN(C(=O)c1cnn(CCCc2ccc3c(n2)NCCC3)c1)[C@@H](CC(=O)O)c1cc(Cl)cc(Cl)c1 [Example 45] = 7.74
O=C(O)C[C@H](NC(=O)c1cnn(Cc2ccc3c(n2)NCCC3)c1)c1cc(Cl)cc(Cl)c1 [Example 97] = 5.93
Cc1ccc(Oc2cccc(C(CC(=O)O)NC(=O)c3cnn(CCc4ccc5c(n4)NCCC5)c3CO)c2)cc1 (centres unmarked) [Example 27] = 8.29
O=C(N[C@@H](CNCc1cnn(CCc2ccc3c(n2)NCCC3)c1)C(=O)O)OCc1ccccc1 [Example 174] = 8.21
Cc1nc2c(cc1Cn1cc(C(=O)NC(CC(=O)O)c3cc(Cl)cc(Cl)c3)c(C)n1)CCCN2 (centres unmarked) [Example 100] = 5.84

(P) O=C(O)CC(NC(=O)c1cnn(CCc2ccc3c(n2)NCCC3)c1CO)c1ccc2c(c1)OCO2 (centres unmarked) [Example 65]
(Q) COc1ccc([C@H](CC(=O)O)N(C)C(=O)c2cnn(CCc3ccc4c(n3)NCCC4)c2)cc1F [Example 18]
(R) CCOC(=O)C[C@H](NC(=O)c1cnn(CCc2ccc3c(n2)NCCC3)c1)c1cc(Cl)cc(Cl)c1 [Example 101]
(S) CC(C)(C)COC(=O)N[C@@H](CNC(=O)c1cnn(CCc2ccc3c(n2)NCCC3)c1)C(=O)O [Example 137]
(T) COc1ccc(S(=O)(=O)N[C@@H](CNC(=O)c2cnn(CCc3ccc4c(n3)NCCC4)c2)C(=O)O)cc1 [Example 19]
Rank the 5 molecules: largest pIC50 first, smallest last. Answer format: the labels, ordered as requested.
S, T, Q, P, R
(S: 9.10, T: 8.89, Q: 7.89, P: 7.19, R: 5.83)

(I) O=C(O)CC(NC(=O)c1cnn(CCCc2ccc3c(n2)NCCC3)c1CO)c1cc(Cl)cc(Cl)c1 (centres unmarked) [Example 68]
(II) Cc1cc(C)c(C(=O)N[C@@H](CNC(=O)c2cnn(CCc3ccc4c(n3)NCCC4)c2)C(=O)O)c(C)c1 [Example 15]
Of I and II , which shows the smaller pIC50 value? Lab note: record the label of whichever item you select.
I
